Hey, just so you know, these numbers are from patent US20070213297A1.

target: chicken ST6GalNAc-I (Gallus gallus); construct: made in house; host or cells: insect cells; assay: chST6GalNAc-I activity on small acceptor molecules; type: biochemical; conditions: α-D-galacto derivatives as acceptors
Sequence (Q92183 whole entry): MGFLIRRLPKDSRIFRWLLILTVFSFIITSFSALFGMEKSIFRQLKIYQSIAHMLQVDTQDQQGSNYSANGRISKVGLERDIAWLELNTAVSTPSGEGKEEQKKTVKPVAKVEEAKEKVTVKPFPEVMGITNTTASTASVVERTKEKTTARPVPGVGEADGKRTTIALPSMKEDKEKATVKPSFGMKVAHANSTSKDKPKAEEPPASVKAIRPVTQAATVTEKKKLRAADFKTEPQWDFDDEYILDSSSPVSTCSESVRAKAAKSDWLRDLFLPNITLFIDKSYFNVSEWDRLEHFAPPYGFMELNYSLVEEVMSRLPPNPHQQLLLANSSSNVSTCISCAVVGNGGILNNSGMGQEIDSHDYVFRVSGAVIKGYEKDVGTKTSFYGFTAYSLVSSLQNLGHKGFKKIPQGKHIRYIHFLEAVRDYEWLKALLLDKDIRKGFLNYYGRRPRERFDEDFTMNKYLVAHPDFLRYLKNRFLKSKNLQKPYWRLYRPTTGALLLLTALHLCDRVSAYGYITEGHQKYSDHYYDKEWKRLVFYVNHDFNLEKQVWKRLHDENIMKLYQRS

[
  {
    "molecule": "OCC1O[C@@H](O)C(O)[C@@H](O)[C@@H]1O[C@@H]1OC(CO)[C@H](O)[C@H](O)C1O (stereo partly shown) [Compound 4]",
    "chST6GalNAc-I activity, nmol/mg x min^−1 (nmol/mg x min^−1)": 2.90
  },
  {
    "molecule": "O=[N+]([O-])c1ccc(O[C@@H]2OC(CO)[C@@H](O[C@@H]3OC(CO)[C@H](O)[C@H](O)C3O)[C@H](O)C2O)cc1 (stereo partly shown) [Compound 5]",
    "chST6GalNAc-I activity, nmol/mg x min^−1 (nmol/mg x min^−1)": 1.30
  },
  {
    "molecule": "CC(=O)N[C@@H]1[C@@H](O)[C@@H](O)[C@@H](CO)O[C@@H]1O [D-GaINAc, reference compound]",
    "chST6GalNAc-I activity, nmol/mg x min^−1 (nmol/mg x min^−1)": 0.00
  }
]
